Measured values drawn from ChEMBL document CHEMBL1201862 for this set.

System: A549
ASSAY_OVERVIEW: NCI tumour cell line growth inhibition, 48 h
Active and inactive are the calls of the source. No stated cut-off is given here; in the data, active = GI50 up to about 1.1 µM and inactive = higher. *1 amine or outer side, *2 acyl side, *3 side chain or, on linkers, in order; H or OH if unused. Where a SMILES comes first, the peptide text is derived from it. Bridges are numbered along the chain shown (N, C = ends). [ ]: non-standard residue; d: D form. The star is where a group is joined. X36 = O=C(C(CCCCNO[*:3])N[*:1])[*:2]; Fmoc = O=C(OCC1c2ccccc2-c2ccccc21)*

MOLECULE	GI50
Cc1ccc(OCCn2cc(Nc3ccccc3)c(=O)[nH]c2=O)cc1	> 100 µM (inactive)
Cc1cc2occ(C)c(=O)c2c2c1OC(C)(C)S2	> 100 µM (inactive)
COc1cc2c(cc1OC)C1(c3ccccc3)ON=C(c3ccccc3)N1CS2 (configuration not stated)	> 100 µM (inactive)
Cc1cccc2c1Oc1cc(Cl)ccc1C2NC(=O)CCN1CCCCC1 (configuration not stated)	18.7 µM (inactive)
c1ccc2[nH]c(C3CCCCO3)nc2c1 (configuration not stated)	> 100 µM (inactive)
COc1ccc(CC[N+]2(C)COc3cc4oc(=O)cc(C)c4cc3C2)cc1OC (configuration not stated)	> 100 µM (inactive)
CCOC(=O)C(=CNc1ccc(F)c(F)c1)C(=O)OCC	> 100 µM (inactive)
CC1=C(SC#N)S(=O)(=O)N(c2ccccc2)C(C)=C1SC#N	40.7 µM (inactive)
CC(C)(CO)NC(=O)Nc1c(C(F)(F)F)cc(-c2ccccc2)[nH]c1=O	> 100 µM (inactive)
CS(=O)(=O)Nc1ccc2c(c1)N(S(C)(=O)=O)CC2CCl (configuration not stated)	> 100 µM (inactive)
c1ccc([B-]2(c3ccccc3)NCCCO2)cc1	58.6 µM (inactive)
Cc1ccccc1C1SCc2nc3ccccc3n21 (configuration not stated)	> 100 µM (inactive)
NC(Cc1ccc(S(=O)(=O)O)cc1)C(=O)NC(Cc1ccc(S(=O)(=O)O)cc1)C(=O)NC(Cc1ccc(S(=O)(=O)O)cc1)C(=O)NC(Cc1ccc(S(=O)(=O)O)cc1)C(=O)O (configuration not stated)	> 100 µM (inactive)
O=C(/C=N/O)Nc1cc(Cl)c(Cl)cc1Cl	34.5 µM (inactive)
O=C1C2Cc3ccccc3CN2C(=O)N1CCN1CCCC1 (configuration not stated)	> 100 µM (inactive)
COc1ccccc1/C=C1\Sc2scc(-c3cccc([N+](=O)[O-])c3)[n+]2C1=O	17.1 µM (inactive)
CC1(C)[C@H](O)CC[C@]2(C)C3=CC[C@@]4(C)[C@@H]5C[C@](C)(CO)CC[C@]5(C)CC[C@]4(C)C3=CC[C@@H]12	1.75 µM (inactive)
[O-][S+](c1ccccc1)c1ccc(/N=N/O)nc1 (configuration not stated)	> 100 µM (inactive)
COc1cc(O)c2c(O)c3c(=O)oc(C)cc3c(OC)c2c1 [PAEPALANTINE]	25.8 µM (inactive)
Cc1cn(C2CC(O)C(CO)O2)c(=O)[nH]c1=O (configuration not stated)	689 µM (inactive)
CCOC(=O)C1=C(C)N(C2OC(COC(C)=O)C(OC(C)=O)C(OC(C)=O)C2OC(C)=O)C(=O)NC1c1ccccc1 (configuration not stated)	> 100 µM (inactive)
CCCCCCCCCCCCCC(=O)OC(/C=C/C(C)C)C(O)C(O)C(OC)C(=O)NC1CCCCN(C)C1=O (configuration not stated)	0.575 µM (active)
c1ccc2c(c1)cc1n2CCc2c-1[nH]c1ccccc21	> 10 µM (inactive)
COc1cc2c(cc1O)CC13CCC(=O)N1CCc1cc(OC)c(O)c-2c13 (configuration not stated)	> 68.1 µM (inactive)
COc1ccc(OC)c(/C=C/C(=O)C(C)(C)C)c1	29.4 µM (inactive)
O=C1NC(=S)NC1C(Cc1ccccc1)c1ccco1 (configuration not stated)	> 100 µM (inactive)
CC(=O)Oc1c(-c2ccccc2)sc2ccccc12	20.6 µM (inactive)
CCCN1C(=O)CC(C)N(Cc2ccccc2Cl)C1=S (configuration not stated)	35.3 µM (inactive)
O=C1C(CO)=C[C@H](O)[C@H]2O[C@@H]12	318 µM (inactive)
NC(=O)CNC(=O)C1CCCN1C(=O)C1CCCCNOC(=O)CCC(NC(=O)OCC2c3ccccc3-c3ccccc32)C(=O)NC(Cc2c[nH]c3ccccc23)C(=O)N1 (configuration not stated) (Fmoc-EW[X36]PG-NH2; ester 1-3; configuration not given here)	> 100 µM (inactive)
O=c1oc2ccccc2c(-c2ccc(O)cc2)c1Oc1ccc(Cl)cc1	19.3 µM (inactive)
Cc1ccc(F)c2[nH]c(-c3ccccc3)cc(=O)c12	4.97 µM (inactive)
COc1ccc(NC(=O)C2=CC(=O)c3ccc(O)cc3C2=O)c(OC)c1	> 100 µM (inactive)
CCCCCCc1cc2cc(C(=O)Nc3cccc(C(F)(F)F)c3)c(=N)oc2cc1O	2.06 µM (inactive)
O=C1CCC[C@]2(CCC[C@@H](O)C2)N1	> 100 µM (inactive)
CC12CCCC(C(=O)O)(C1)[C@H](C(C)(C)C(=O)O)CC2 (some centres not stated)	> 100 µM (inactive)
COc1cc(C(O)(CC#N)c2cc3c(cc2Br)OCO3)cc(OC)c1OC (configuration not stated)	22.9 µM (inactive)
CCOP(=O)(OCC)C(C)(C)OC(=O)NC(F)(F)F	> 100 µM (inactive)
O=C(Oc1cc(=O)c(OC(=O)c2ccccc2)co1)c1ccccc1	84.7 µM (inactive)
COc1c2ccoc2cc2oc(=O)ccc12 [BERGAPTEN]	> 100 µM (inactive)
CC1(C)CC2(C)ON=C(c3ccccc3)N2c2ccccc2N1 (configuration not stated)	25.1 µM (inactive)
Nc1ccc(CCN2CCN(c3cccc(C(F)(F)F)c3)CC2)cc1	> 100 µM (inactive)
